System: TT (Thyroid Gland Carcinoma)
Test: Bliss excess, mean over the matrix (fraction); higher = more synergy
measurement_name: Bliss excess
Answer as a number with no unit attached.

Fill in: Bliss excess of CCc1c2c(nc3ccc(O)cc13)-c1cc3c(c(=O)n1C2)COC(=O)[C@]3(O)CC [SN-38] + O=C(c1cc(Cc2n[nH]c(=O)c3ccccc23)ccc1F)N1CCN(C(=O)C2CC2)CC1 [Olaparib] (first compound max 0.3 µM, 7x7, partner max 10 µM) is ___
0.0545

###

Tested on: NCI-H1693 (Lung Adenocarcinoma)
Experiment: Bliss excess, mean over the matrix (fraction); higher = more synergy
measurement_name: Bliss excess

Value wanted: Bliss excess (NCI-H1693 (Lung Adenocarcinoma)) of entry Cc1c2c(nn1C)CSCc1cc(n(C)n1)CSc1cc(c3ccccc3c1)OCCCc1c(C(=O)O)n(C)c3c-2c(Cl)ccc13 [AZD5991] + C[C@@H]1COCCN1C2=NC(=NC(=C2)C3(CC3)[S@](=N)(=O)C)C4=C5C=CNC5=NC=C4 [AZD6738] (first compound max 1 µM, 7x7, partner max 10 µM)
0.0316

API: value(readout= Bliss excess, system= NCI-H1693 (Lung Adenocarcinoma), query= CC(=O)c1c(C)c2cnc(Nc3ccc(N4CCNCC4)cn3)nc2n(C2CCCC2)c1=O [Palbociclib] + Cn1cnc2c(F)c(Nc3ccc(Br)cc3Cl)c(C(=O)NOCCO)cc21 [Selumetinib] (first compound max 10 µM, 7x7, partner max 10 µM) )
-0.0306

What Bliss excess appears in the records for this compound with NCI-H1693 (Lung Adenocarcinoma)? NC1(C(=O)N[C@@H](CCO)c2ccc(Cl)cc2)CCN(c2ncnc3[nH]ccc23)CC1 [Capivasertib] + CC(=O)c1c(C)c2cnc(Nc3ccc(N4CCNCC4)cn3)nc2n(C2CCCC2)c1=O [Palbociclib] (first compound max 10 µM, 7x7, partner max 10 µM)
-0.0631

Record C=CCn1c(=O)c2cnc(Nc3ccc(N4CCN(C)CC4)cc3)nc2n1-c1cccc(C(C)(C)O)n1 [AZD1775] + O=C(c1cc(Cc2n[nH]c(=O)c3ccccc23)ccc1F)N1CCN(C(=O)C2CC2)CC1 [Olaparib] (first compound max 1 µM, partner max 10 µM) : what is its Bliss excess with NCI-H1693 (Lung Adenocarcinoma)?
-0.0137

What value of Bliss excess on NCI-H1693 (Lung Adenocarcinoma) does Cc1c2c(nn1C)CSCc1cc(n(C)n1)CSc1cc(c3ccccc3c1)OCCCc1c(C(=O)O)n(C)c3c-2c(Cl)ccc13 [AZD5991] + CC1(C)CCC(CN2CCN(c3ccc(C(=O)NS(=O)(=O)c4ccc(NCC5CCOCC5)c([N+](=O)[O-])c4)c(Oc4cnc5[nH]ccc5c4)c3)CC2)=C(c2ccc(Cl)cc2)C1 [Venetoclax] (first compound max 1 µM, 7x7, partner max 1 µM) have?
-0.025

Lab note: need Bliss excess with NCI-H1693 (Lung Adenocarcinoma) for entry COc1cccc2c1C(=O)c1c(O)c3c(c(O)c1C2=O)C[C@@](O)(C(=O)CO)C[C@@H]3O[C@H]1C[C@H](N)[C@H](O)[C@H](C)O1 [Doxorubicin] + Cc1cc2ncnn2cc1Nc1ncc2c(n1)n(C1CCOCC1)c(=O)n2C [AZD7648] (first compound max 1 µM, 7x7, partner max 10 µM) , please look it up.
0.036

Others:
Provide value of Bliss excess for this record tested with NCI-H1693 (Lung Adenocarcinoma): CC(=O)c1c(C)c2cnc(Nc3ccc(N4CCNCC4)cn3)nc2n(C2CCCC2)c1=O [Palbociclib] + CC1(C)CCC(CN2CCN(c3ccc(C(=O)NS(=O)(=O)c4ccc(NCC5CCOCC5)c([N+](=O)[O-])c4)c(Oc4cnc5[nH]ccc5c4)c3)CC2)=C(c2ccc(Cl)cc2)C1 [Venetoclax] (first compound max 10 µM, 7x7, partner max 1 µM)
0.0079

Recorded Bliss excess for CC1(C)CCC(CN2CCN(c3ccc(C(=O)NS(=O)(=O)c4ccc(NCC5CCOCC5)c([N+](=O)[O-])c4)c(Oc4cnc5[nH]ccc5c4)c3)CC2)=C(c2ccc(Cl)cc2)C1 [Venetoclax] + C[C@@H]1COCCN1C2=NC(=NC(=C2)C3(CC3)[S@](=N)(=O)C)C4=C5C=CNC5=NC=C4 [AZD6738] (first compound max 1 µM, 7x7, partner max 10 µM) with NCI-H1693 (Lung Adenocarcinoma), please?
-0.0147

Checklist item: Bliss excess tested on NCI-H1693 (Lung Adenocarcinoma), entry Cc1c2c(nn1C)CSCc1cc(n(C)n1)CSc1cc(c3ccccc3c1)OCCCc1c(C(=O)O)n(C)c3c-2c(Cl)ccc13 [AZD5991] + CCN(CCO)CCCOc1ccc2c(Nc3cc(CC(=O)Nc4cccc(F)c4)[nH]n3)ncnc2c1 [AZD2811] (first compound max 1 µM, 7x7, partner max 1 µM) , value?
0.0102

Find Bliss excess (NCI-H1693 (Lung Adenocarcinoma)) for the entry COc1cccc(OCCCN)c1-c1cc(Nc2cnc(C#N)cn2)n[nH]1 [Prexasertib] + C[C@@H]1COCCN1C2=NC(=NC(=C2)C3(CC3)[S@](=N)(=O)C)C4=C5C=CNC5=NC=C4 [AZD6738] (first compound max 1 µM, 7x7, partner max 10 µM)
0.0816

Report Bliss excess for CN(C)CCCOc1ccc(-c2ccc3ncc4c(c3c2)n(C2CCOCC2)c(=O)n4C)cn1 [AZD0156] + CCN(CCO)CCCOc1ccc2c(Nc3cc(CC(=O)Nc4cccc(F)c4)[nH]n3)ncnc2c1 [AZD2811] (first compound max 1 µM, 7x7, partner max 1 µM) tested on NCI-H1693 (Lung Adenocarcinoma).
-0.0274

Requested read-out Bliss excess, target or system NCI-H1693 (Lung Adenocarcinoma), entry COc1nnc2ccc(N3CCC(c4ccc(OCCN5CCN(C)C(=O)[C@H]5C)cc4)CC3)nn12 [AZD5153] + Cn1cnc2c(F)c(Nc3ccc(Br)cc3Cl)c(C(=O)NOCCO)cc21 [Selumetinib] (first compound max 1 µM, 7x7, partner max 10 µM)
0.0093

For NCI-H1693 (Lung Adenocarcinoma), provide Bliss excess of CC1(C)CCC(CN2CCN(c3ccc(C(=O)NS(=O)(=O)c4ccc(NCC5CCOCC5)c([N+](=O)[O-])c4)c(Oc4cnc5[nH]ccc5c4)c3)CC2)=C(c2ccc(Cl)cc2)C1 [Venetoclax] + C[C@@H](Nc1cc(F)cc(F)c1)c1cc(C(=O)N(C)C)cc2c(=O)cc(N3CCOCC3)oc12 [AZD8186] (first compound max 1 µM, 7x7, partner max 3 µM) please.
-0.034

###

Test system: FU97 (Gastric Carcinoma)
Test: Bliss excess, mean over the matrix (fraction); higher = more synergy
Overview of recorded Bliss excess for various compounds
Give the figure only, with no unit attached.

# get_value(readout='Bliss excess', item= Cc1cc2ncnn2cc1Nc1ncc2c(n1)n(C1CCOCC1)c(=O)n2C [AZD7648] + O=C(c1cc(Cc2n[nH]c(=O)c3ccccc23)ccc1F)N1CCN(C(=O)C2CC2)CC1 [Olaparib] (first compound max 10 µM, 7x7, partner max 10 µM) )
-0.0879

Any idea what its Bliss excess is? The compound is CN(CCO)CC[C@H](CSc1ccccc1)Nc1ccc(S(=O)(=O)NC(=O)c2ccc(N3CCC([C@@H](O)c4ccccc4-c4ccc(Cl)cc4)CC3)cc2)cc1S(=O)(=O)C(F)(F)F [AZD4320] + CCN(CCO)CCCOc1ccc2c(Nc3cc(CC(=O)Nc4cccc(F)c4)[nH]n3)ncnc2c1 [AZD2811] (first compound max 1 µM, 7x7, partner max 1 µM)
-0.0531

For the compound C[C@@H]1COCCN1c1cc(C2([S@](C)(=N)=O)CC2)nc(-c2ccnc3[nH]ccc23)n1 [AZD6738] + C1CC(C1)(C(=O)[O-])C(=O)[O-].N.N.[Pt+2] [Carboplatin] (first compound max 10 µM, 7x7, partner max 10 µM) , what Bliss excess is on record?
-0.0215

Let's switch to this compound now.
Record request: Bliss excess value, item Cc1c2c(nn1C)CSCc1cc(n(C)n1)CSc1cc(c3ccccc3c1)OCCCc1c(C(=O)O)n(C)c3c-2c(Cl)ccc13 [AZD5991] + C[C@@H](Nc1cc(F)cc(F)c1)c1cc(C(=O)N(C)C)cc2c(=O)cc(N3CCOCC3)oc12 [AZD8186] (first compound max 1 µM, 7x7, partner max 3 µM)
0.0594

###

Tested on: ARH-77 (Non-Cancerous)
Test: combination Emax (second highest fraction inhibited in the dose matrix, 72 h); higher = more inhibition; extreme values may be limits of the assay
measurement_name: combination Emax
I only need the number, thanks.

I'd like to know its combination Emax. The compound in question is Cn1cnc2c(F)c(Nc3ccc(Br)cc3Cl)c(C(=O)NOCCO)cc21 [Selumetinib] + CC(C)n1c(=O)n(C)c2cnc3cc(F)c(-c4ccc(OCCCN5CCCCC5)nc4)cc3c21 [AZD1390] (first compound max 10 µM, 7x7, partner max 0.3 µM)
0.318

Further cases:
For the compound shown here, Cc1cc2ncnn2cc1Nc1ncc2c(n1)n(C1CCOCC1)c(=O)n2C [AZD7648] + CCN(CCO)CCCOc1ccc2c(Nc3cc(CC(=O)Nc4cccc(F)c4)[nH]n3)ncnc2c1 [AZD2811] (first compound max 10 µM, 7x7, partner max 1 µM) , give the reported combination Emax.
0.54
